System: bicistronic genotype 1b replicon in Huh 7 cells (1b_Huh-Luc/Neo-ET cell line)
METHOD NOTES: HCV replicon assay, luciferase enzyme activity readout
Type: cell-based
CONDITION PARAMETERS: Hepatitis C virus, 1b_Huh-Luc/Neo-ET replicon cells, 72 h incubation, Bright-Glo luciferase readout, EC50 ranges, read-out: Inhibition of HCV genotype 1b
MEASURE: EC50

Below: 2 compounds and their reported EC50.
COMPOUND	EC50
COC(=O)N[C@H](C(=O)N1CC(C)=C[C@H]1c1ncc(-c2ccc(C#Cc3ccc(-c4cnc([C@@H]5CCCN5C(=O)[C@@H](NC(=O)OC)C(C)C)[nH]4)cc3)cc2)[nH]1)C(C)C [Compound 103]	< 1 nM
COC(=O)N[C@H](C(=O)N1CC(C2CC2)=C[C@H]1c1nc2ccc(-c3ccc4cc(-c5cnc([C@@H]6CCCN6C(=O)[C@@H](NC(=O)OC)C(C)C)[nH]5)ccc4c3)cc2[nH]1)C(C)C [Compound 114]	< 1 nM

For COC(=O)N[C@H](C(=O)N1CC(C)=C[C@H]1c1ncc(-c2ccc3cc(-c4ccc5nc([C@@H]6CCCN6C(=O)[C@@H](NC(=O)OC)C(C)C)[nH]c5c4)ccc3c2)[nH]1)C(C)C [Compound 119] the compound record lists EC50 as < 1 nM

---

Test system: bicistronic genotype 1b replicon in Huh 7 cells (1b_Huh-Luc/Neo-ET cell line)
METHOD NOTES: HCV replicon assay, luciferase enzyme activity readout
Type: cell-based
CONDITION PARAMETERS: Hepatitis C virus, 1b_Huh-Luc/Neo-ET replicon cells, 72 h incubation, Bright-Glo luciferase readout, EC50 ranges, read-out: Inhibition of HCV genotype 1b
pEC50: −log10 of the molar value.
MEASURE: pEC50

ITEM SMILES	TARGET DESC	pEC50
COC(=O)N[C@H](C(=O)N1CC(C)=C[C@H]1c1ncc(-c2ccc(C#Cc3ccc4c(ccc5nc([C@@H]6CCCN6C(=O)[C@@H](NC(=O)OC)C(C)C)[nH]c54)c3)cc2)[nH]1)C(C)C	bicistronic genotype 1b replicon in Huh 7 cells (1b_Huh-Luc/Neo-ET cell line)	> 9.00
COC(=O)N[C@H](C(=O)N1CC(C)=C[C@H]1c1ncc(-c2ccc3cc(-c4ccc5nc([C@@H]6C=C(C7CC7)CN6C(=O)[C@@H](NC(=O)OC)C(C)C)[nH]c5c4)ccc3c2)[nH]1)C(C)C	bicistronic genotype 1b replicon in Huh 7 cells (1b_Huh-Luc/Neo-ET cell line)	> 9.00
COC(=O)N[C@H](C(=O)N1CC(C)=C[C@H]1c1ncc(-c2ccc3c(c2)Oc2ccc(-c4cnc([C@@H]5C=C(C)CN5C(=O)[C@@H](NC(=O)OC)C(C)C)[nH]4)cc2C3(C)C)[nH]1)C(C)C	bicistronic genotype 1b replicon in Huh 7 cells (1b_Huh-Luc/Neo-ET cell line)	> 9.00
COC(=O)N[C@H](C(=O)N1CC(C2CC2)=C[C@@H]1c1nc2ccc(C#Cc3ccc(-c4cnc([C@@H]5CCCN5C(=O)[C@@H](NC(=O)OC)C(C)C)[nH]4)cc3)cc2[nH]1)C(C)C	bicistronic genotype 1b replicon in Huh 7 cells (1b_Huh-Luc/Neo-ET cell line)	8.00 to 9.00

// next entry
Form field pEC50, entry `COC(=O)N[C@H](C(=O)N1CC(C)=C[C@H]1c1nc2ccc(C#Cc3ccc(-c4cnc([C@@H]5CCCN5C(=O)[C@@H](NC(=O)OC)C(C)C)[nH]4)cc3)cc2[nH]1)C(C)C` : > 9.00

---

System: bicistronic genotype 1b replicon in Huh 7 cells (1b_Huh-Luc/Neo-ET cell line)
METHOD NOTES: HCV replicon assay, luciferase enzyme activity readout
Assay type: cell-based
CONDITION PARAMETERS: Hepatitis C virus, 1b_Huh-Luc/Neo-ET replicon cells, 72 h incubation, Bright-Glo luciferase readout, EC50 ranges, read-out: Inhibition of HCV genotype 1b
Provide the recorded EC50 for the entries that follow.

State the recorded EC50 for every item in the following list.
1. COC(=O)N[C@H](C(=O)N1CC(C2CC2)=C[C@H]1c1ncc(-c2ccc(-c3ccc4cc(-c5cnc([C@@H]6CCCN6C(=O)[C@@H](NC(=O)OC)C(C)C)[nH]5)ccc4c3)cc2)[nH]1)C(C)C
2. COC(=O)N[C@H](C(=O)N1CC(C)=C[C@H]1c1ncc(-c2ccc3cc(-c4ccc(-c5cnc([C@@H]6CCCN6C(=O)[C@@H](NC(=O)OC)C(C)C)[nH]5)cc4)ccc3c2)[nH]1)C(C)C
3. COC(=O)N[C@H](C(=O)N1CC(C)=C[C@H]1c1ncc(-c2ccc(C#Cc3ccc(-c4cnc([C@@H]5C=C(C)CN5C(=O)[C@@H](NC(=O)OC)C(C)C)[nH]4)cc3)cc2)[nH]1)C(C)C
4. COC(=O)N[C@H](C(=O)N1CC(C)=CC1c1ncc(-c2ccc(-c3ccc4cc(-c5cnc([C@@H]6CCCN6C(=O)[C@@H](NC(=O)OC)C(C)C)[nH]5)ccc4c3)cc2)[nH]1)C(C)C (some centres unmarked)
5. COC(=O)N[C@H](C(=O)N1CC(C2CC2)=C[C@H]1c1nc2ccc(C#Cc3ccc(-c4cnc([C@@H]5CCCN5C(=O)[C@@H](NC(=O)OC)C(C)C)[nH]4)cc3)cc2[nH]1)C(C)C

(A)
["< 1 nM", "< 1 nM", "< 1 nM", "< 1 nM", "< 1 nM"]

Where do these numbers come from? They come from patent US20130310427A1.
